Assay system: Tyrosine-protein kinase BTK (Homo sapiens, UniProt Q06187)
Sequence (Q06187 whole entry): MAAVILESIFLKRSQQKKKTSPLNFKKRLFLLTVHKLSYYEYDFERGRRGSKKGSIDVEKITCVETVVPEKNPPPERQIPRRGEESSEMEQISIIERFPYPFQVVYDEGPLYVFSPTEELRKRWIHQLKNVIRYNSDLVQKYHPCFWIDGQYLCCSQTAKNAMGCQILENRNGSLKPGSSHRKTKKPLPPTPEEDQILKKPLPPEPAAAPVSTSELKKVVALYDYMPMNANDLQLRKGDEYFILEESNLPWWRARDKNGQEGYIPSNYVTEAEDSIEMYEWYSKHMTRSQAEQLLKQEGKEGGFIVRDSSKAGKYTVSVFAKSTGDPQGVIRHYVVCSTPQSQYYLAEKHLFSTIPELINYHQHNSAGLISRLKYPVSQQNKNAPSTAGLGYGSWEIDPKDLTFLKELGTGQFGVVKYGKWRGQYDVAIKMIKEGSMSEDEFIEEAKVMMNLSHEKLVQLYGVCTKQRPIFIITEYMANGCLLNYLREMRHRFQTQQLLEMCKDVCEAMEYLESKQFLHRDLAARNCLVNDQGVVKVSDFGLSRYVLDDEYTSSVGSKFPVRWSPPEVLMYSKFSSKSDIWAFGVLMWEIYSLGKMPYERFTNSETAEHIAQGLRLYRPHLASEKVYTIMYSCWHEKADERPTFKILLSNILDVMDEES
Assay remarks: Inhibition of recombinant full length His-tagged human BTK expressed in baculovirus expression system using poly (4:1 Glu, Tyr) as substrate preincubated for 1 hr followed by substrate addition measured after 1 hr by ADP-glo assay
Reported IC50 values follow for various molecules
Enter your answer as a number in nM; do not include the unit.

Consider the worked cases shown below.
compound_string=C=CC(=O)Nc1cc(-n2c(=O)ccc3cnc4ccc(-c5ccc(NC(=O)NC)cc5)cc4c32)ccc1C property=IC50 measured_result=79.1
compound_string=C=CC(=O)N1CCc2ccc(-n3c(=O)ccc4cnc5ccc(-c6cnc7ccccc7c6)cc5c43)cc21 property=IC50 measured_result=7.15

Next, consider the following molecule.
Exercise: Return reported IC50. Input molecule: CCC(=O)Nc1cc(-n2c(=O)ccc3cnc4ccc(-n5cccn5)cc4c32)ccc1C
Solution: 6870
